- experiment.summary: Ratio of drug level in MK-801 induced cognitive deficit Sprague-Dawley rat brain to plasma at 3 mg/kg, po
- Format: ADME, organism-based
- test.context: read-out: BPR
experimental.readout: Kp
Could you keep your reply to the number by itself?

Could you tell me which Kp is on file for `FC(F)(F)c1c(OC[C@H]2C[C@@H]2c2ccc(Cl)cc2)ccn2c(CC3CC3)nnc12` ?
0.4

###

- experiment.summary: Drug level in Sprague-Dawley rat plasma at 3 mg/kg, po administered as single dose measured after 1 hr
- Assay type: ADME, organism-based
experimental.readout: concentration at 1 h (µM)
Form entry: value (µM) — number only.

Could you tell me which concentration at 1 h is on file for `FC(F)(F)c1c(OC[C@H]2C[C@@H]2c2ccc(Cl)cc2)ccn2c(CC3CC3)nnc12` ?
3.6
